Data provenance: patent US6297230A

- Test system: OVCAR-3 ovarian carcinoma cells
- Procedure details: In vitro antitumor activity, OVCAR-3 ovarian
- Format: cell-based, human
- Cond: Homo sapiens, OVCAR-3; OVCAR3 ovarian; read-out: IC50
Strictly below 2 µg/mL in IC50: true. Otherwise: false.

For orientation, consider the following solved cases.
Compound	Discrete label
N#CC1CN1C(=O)Nc1ccccc1 (stereo not shown) [AMP 404, 2-Cyanoaziridine-1-(N-phenyl)carboxamide]	true
CC(=O)c1cccc(NC(=O)N2CC2C#N)c1 (stereo not shown) [AMP 425]	false
N#CC1CN1C(=O)NCc1ccccc1 (stereo not shown) [AMP 412, 2-Cyanoaziridine-1-(N-benzyl)carboxamide]	true

Lab log: compare recorded IC50 with 2 µg/mL; is it strictly lower for N#CC1CN1C(=O)Nc1ccc([N+](=O)[O-])cc1 (stereo not shown) [AMP 417] ?
true

Also N#CC1CN1C(=O)Nc1cccc2ccccc12 (stereo not shown) [AMP 423] ?
true

Also N#CC1CN1C(=O)Nc1ccc(F)cc1 (stereo not shown) [AMP 415] ?
true

Also N#CC1CN1C(=O)Nc1ccc(C(F)(F)F)cc1 (stereo not shown) [AMP 416] ?
true

Also CCOC(=O)CNC(=O)N1CC1C#N (stereo not shown) [AMP 420] ?
false

Also CNC(=O)N1CC1C#N (stereo not shown) [AMP 403, 2-Cyanoaziridine-1-(N-methyl)carboxamide] ?
true

Also N#CC1CN1C(=O)NC1CCCCC1 (stereo not shown) [AMP 413] ?
false
